meta.source: ChEMBL document CHEMBL4765292

# Lookup of reported selectivity ratio keyed by entry
# System: DHFR (human against Plasmodium falciparum DHFR double mutant)
# assay_text: Selectivity index, ratio of Ki for human DHFR expressed in Escherichia coli BL21 to Ki for Plasmodium falciparum DHFR double mutant expressed in Escherichia coli BL21
# Type: toxicity
# experimental_parameters: read-out: Ratio Ki
Keep the answer to the number alone.

Examples with answers:
CN(CCCON1C(N)=NC(N)=NC1(C)C)c1ccc(Cl)cc1 | 24
CC1(C)N=C(N)N=C(N)N1OCCCCc1ccccc1 | 60
NC1=NC(c2ccccc2)N(OCCCOc2cc(Cl)c(Cl)cc2Cl)C(N)=N1 (configuration not stated) | 76
CCN(CC)CCCON1C(N)=NC(N)=NC1(C)C | 135
CC1N=C(N)N=C(N)N1OCCCOc1ccc(F)cc1Cl (configuration not stated) | 131
CC1(C)NC(N)=NC(=N)N1OCCCSc1ccccc1 | 36
CC1(C)NC(N)=NC(=N)N1OCCCCOc1ccccc1 | 35
CN(CCCON1C(N)=NC(N)=NC1(C)C)c1ccc(Cl)c(Cl)c1 | 39
CC1(C)N=C(N)N=C(N)N1OCCCOc1ccc(F)cc1Cl | 42
CC1N=C(N)N=C(N)N1OCCCOc1ccc(Cl)cc1 (configuration not stated) | 166

Notebook: pull reported selectivity ratio for DHFR (human against Plasmodium falciparum DHFR double mutant), entry CC1(C)N=C(N)N=C(N)N1OCCCSc1ccccc1Cl
19

Try this molecule too: CC1(C)N=C(N)N=C(N)N1OCCCOc1ccc(Cl)cc1
32

* * *

# assay_text: Inhibition of Plasmodium falciparum DHFR N51I/C59R/S108N/I164L mutant expressed in Escherichia coli BL21 using DHF as substrate by spectrophotometric analysis
pKi: −log10 of the molar value.
pKi vs 8: at or above is met, below is not met.

Hi team, for CC1(C)N=C(N)N=C(N)N1OCc1ccccc1 , is the recorded pKi at or above 8?
not met

Param item: CC1(C)N=C(N)N=C(N)N1OCCCc1ccccc1
met

Then NC1=NC(c2ccccc2)N(OCCCOc2ccc(Cl)cc2)C(N)=N1 (stereo not drawn) ?
met

* * *

# assay_text: Therapeutic index, ratio of IC50 for African green monkey Vero cells to IC50 for Plasmodium falciparum V1/S harboring DHFR N51I/C59R/S108N/I164L mutant
# Assay type: toxicity
# experimental_parameters: read-out: Ratio IC50
selectivity ratio strictly less than 50 = yes. Otherwise no.

CC1(C)N=C(N)N=C(N)N1OCCCOc1ccccc1 | no
CC1(C)NC(N)=NC(=N)N1OCCCCOc1ccccc1 | yes

Hello, I'm reviewing records and need to know if selectivity ratio of CC1(C)N=C(N)N=C(N)N1OCCCOc1cccc(Cl)c1Cl is below 50. Could you check?
no

Also check CC1(C)N=C(N)N=C(N)N1OCCCSc1ccccc1Cl
no

Next: Cc1ccc(C)c(NCCCON2C(N)=NC(N)=NC2(C)C)c1
no

* * *

# assay_text: Therapeutic index, ratio of IC50 for African green monkey Vero cells to IC50 for Plasmodium falciparum TM4/8.2
# Assay type: toxicity
# experimental_parameters: against Plasmodium falciparum TM4/8.2, read-out: Ratio IC50
measured_property: selectivity ratio

Answered examples (3):
CC1N=C(N)N=C(N)N1OCCCOc1ccc(F)cc1Cl (centres undefined) | > 2170
CC1N=C(N)N=C(N)N1OCCCOc1ccc(Cl)cc1 (centres undefined) | > 1670
Cc1ccc(C)c(NCCCON2C(N)=NC(N)=NC2(C)C)c1 | > 1920

Need selectivity ratio of CCN(CC)CCCON1C(N)=NC(N)=NC1(C)C , thanks.
> 2080

Repeat with CC1(C)N=C(N)N=C(N)N1OCCCCc1ccccc1
821

Okay, and CN(CCCON1C(N)=NC(N)=NC1(C)C)c1ccc(Cl)c(Cl)c1 ?
64000

What do we get for CC1(C)N=C(N)N=C(N)N1OCCCSc1ccc(Cl)cc1 ?
30200

What do you have for CC1(C)N=C(N)N=C(N)N1OCCCNc1ccc(Cl)c(Cl)c1 ?
> 11100

Again, but for CN(CCCON1C(N)=NC(N)=NC1(C)C)c1ccc(Cl)cc1
26500

Quick one: CC1N=C(N)N=C(N)N1OCCCOc1cc(Cl)c(Cl)cc1Cl (centres undefined)
20000

Please give the result for CC1(C)NC(N)=NC(=N)N1OCCCSc1ccccc1 too.
123000

Cool, now CC1(C)N=C(N)N=C(N)N1OCCCOc1ccc(Cl)cc1
607

Do the same for CC1(C)N=C(N)N=C(N)N1OCCCOc1cc(Cl)c(Cl)cc1Cl please
> 1750

Now consider CC1N=C(N)N=C(N)N1OCCCOc1cccc(Cl)c1Cl (centres undefined) .
4550
